Listed next: entries and their corresponding inhibition at 10 µM.
- System: SR (leukemia)
- assayName: NCI-60 SRB cytotoxicity screen
- Format: cell-based
- measurementContext: single dose 10 μM, read-out: growth inhibition (GI%)
experimentalReadout: inhibition at 10 µM (%)

> print(dat)
                            molecularstring  experimentalreadout  comparisonsymbol  assayresult
1  CCc1cccc2cc(-c3cc(-c4ccc(OC)cc4)[nH]c(=O)c3C#N)c(Cl)nc12  inhibition at 10 µM                 <           10
2  CCc1cccc2cc(C=CC(=O)c3ccc(F)cc3)c(Cl)nc12  inhibition at 10 µM                 <           10
3  CCc1cccc2cc(C=CC(=O)c3ccc(OC)c(OC)c3)c(Cl)nc12  inhibition at 10 µM                 =         80.1
4  CCc1cccc2cc(-c3cc(-c4cc(OC)c(OC)c(OC)c4)[nH]c(=O)c3C#N)c(Cl)nc12  inhibition at 10 µM                 =         77.3
